Target: NAMPT (human, recombinant, C-terminally His-tagged) (Homo sapiens, UniProt P43490)
Sequence (P43490 whole entry): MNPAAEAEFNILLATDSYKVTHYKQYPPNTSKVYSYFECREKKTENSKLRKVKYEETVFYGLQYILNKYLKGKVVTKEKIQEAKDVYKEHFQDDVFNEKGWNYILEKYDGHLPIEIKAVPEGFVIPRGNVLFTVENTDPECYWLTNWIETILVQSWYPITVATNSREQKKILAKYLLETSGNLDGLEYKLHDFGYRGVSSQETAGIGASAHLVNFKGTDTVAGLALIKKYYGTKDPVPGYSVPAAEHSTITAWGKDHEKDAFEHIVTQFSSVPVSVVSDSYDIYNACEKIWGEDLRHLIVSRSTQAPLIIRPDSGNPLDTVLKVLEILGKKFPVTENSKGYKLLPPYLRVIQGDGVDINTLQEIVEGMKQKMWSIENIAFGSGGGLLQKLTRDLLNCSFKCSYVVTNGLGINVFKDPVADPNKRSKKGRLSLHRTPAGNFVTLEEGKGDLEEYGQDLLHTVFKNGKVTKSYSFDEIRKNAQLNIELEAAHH
Assay: Time-Resolved Fluorescence Resonance Energy Transfer (TR-FRET) Binding Assay of NAMPT
Settings: without substrates; 6.8 nM NAMPT, 200 nM probe, 3 hours equilibration
pIC50: −log10 of the molar value.
Classify by measured pIC50: satisfied if it is equal to or exceeds 7, not satisfied if it is smaller.

Some solved cases for reference:
CC(C)(O)C(=O)N1CCC(Oc2ccc(C(=O)NCc3ccc4nccn4c3)cc2)CC1; not satisfied
O=C(NCc1ccn2ccnc2c1)c1ccc(OC2CCN(C(=O)CC3CCOCC3)CC2)cc1; not satisfied
CC(C)OCC(=O)Nc1ccc(C(=O)NCc2ccn3ccnc3c2)cc1; not satisfied
O=C(NCc1ccn2ccnc2c1)c1ccc(C2=CCN(C(=O)c3ccccc3F)CC2)o1; not satisfied
O=C(Nc1ccc(C(=O)NCC2CCCCO2)cc1)Nc1ccc2nccn2c1 (centres unmarked); not satisfied

Lookup: # bool: pIC50 of `O=C(NCc1ccn2ccnc2c1)Nc1ccc(O[C@@H]2CCN(C(=O)c3ccccc3F)C2)cc1` >= 7
Found: satisfied

Lookup: # bool: pIC50 of `CC(C)OC[C@@H]1CN(c2ncc(C(=O)NCc3ccn4ccnc4c3)s2)C(=O)O1` >= 7
Found: not satisfied

Lookup: # bool: pIC50 of `O=C(NCc1ccn2ccnc2c1)Nc1ccc(Oc2ccccc2)cc1` >= 7
Found: not satisfied

Lookup: # bool: pIC50 of `O=C(NCc1ccn2ccnc2c1)c1ccc(C2CCN(C(=O)[C@@H]3CCCO3)CC2)cc1` >= 7
Found: not satisfied

Lookup: # bool: pIC50 of `O=C(NCc1ccn2ccnc2c1)c1ccc(O[C@H]2CCN(C(=O)C3CCOCC3)C2)cc1` >= 7
Found: not satisfied

Lookup: # bool: pIC50 of `O=C(CC1CCOCC1)Nc1ccc(NC(=O)Nc2ccc3nccn3c2)cc1` >= 7
Found: satisfied

Lookup: # bool: pIC50 of `CC(C)C(=O)NC1(c2ccc(C(=O)NCc3ccn4ccnc4c3)s2)CCC1` >= 7
Found: not satisfied

Lookup: # bool: pIC50 of `CC(C)Cc1ccc(-c2ccc(C(=O)NCc3ccn4ccnc4c3)o2)cc1` >= 7
Found: not satisfied

Recorded values, source patent US9187472B2.
